# test.summary: inhibition of 3D7 malaria parasite growth – strain 3D7 (AID 2306);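 further: 0% = DMSO wells and 100% = chloroquine plus artemisinin control wells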
# assay.setup: P. falciparum 3D7 erythrocytic growth, LDH absorbance, 72 h; at 2 µM; stronger effect = higher value
Exercise: state measured growth inhibition for each of the molecules provided.
Answers are plain numbers, in %.

Example molecules with recorded growth inhibition:
1. O=C(CCCCCCc1ccccc1)Nc1ccc2nc3c(c(NCc4ccccc4)c2c1)CCCC3 | 101
2. COc1ccccc1NS(=O)(=O)c1cc(C(=O)Nc2ccc(N3CCOCC3)c(S(=O)(=O)Nc3ccccc3Cl)c2)ccc1Cl | 97
3. COc1cc2nc(SCCCC#N)n(C3CCCCCC3)c(=N)c2cc1OC | 89

Look at each molecule and report its growth inhibition.
1. CS(=O)(=O)c1ccc(CCNCc2ccc(-c3ccc(CN(C(=O)c4ccc(Cl)nc4)C4CCN(Cc5ccccc5)CC4)cc3)nc2)cc1
2. CN1CCCN(Cc2cccc(-c3cccc(NC(=O)c4cccc(C#N)c4)c3)c2)CC1
3. CCCCCCNC(=O)C1Cc2c([nH]c3ccc(Br)cc23)C2(CCN(Cc3ccccc3)CC2)N1 (centres undefined)
4. Cc1nc2nc(N)nc(N)c2c(C)c1Cc1c(Cl)cccc1Cl
5. Cc1cccc2[nH]c(-c3cccc(-c4cccc(NC(=O)c5cnc[nH]5)c4)c3)nc12
6. CC(C)c1sc(N2CCN(C)CC2)nc1C(=O)NCCc1ccc(Cl)c(Cl)c1

## Result
1. 93
2. 95
3. 100
4. 94
5. 100
6. 98
